MIC99 values by entry
- System: Mycobacterium kansasii
- Test Description: Antimycobacterial activity against Mycobacterium kansasii CNCTC My 235/80 after 14 days
- Type: functional
- Cond: CNCTC My 235/80, 336 h

# Smiles String, MIC99
records = [
    ("O=[N+]([O-])c1cc(CSc2nnc(-c3ccccc3)n2Cc2ccc(Cl)cc2Cl)cc([N+](=O)[O-])c1", "> 32 µM"),
]

Assign MIC99 to the following record: COc1ccc(-c2nnc(SCc3cc([N+](=O)[O-])cc(C(F)(F)F)c3)n2Cc2ccccc2)cc1
> 32 µM

Assign MIC99 to the following record: O=[N+]([O-])c1cc(CSc2nnc(-c3ccccc3)n2Cc2ccccc2)cc(C(F)(F)F)c1
> 32 µM
